system: MS2 coat protein; test: apparent KD of MS2 coat protein; designed switch direction (-1 OFF switch, 1 ON switch): -1; higher = weaker reporter binding; details: input ligand: FMN 200 uM
READOUT KIND: apparent KD of MS2 coat protein
Phrase the answer as number then unit, nothing more needed.

Please review the following examples before continuing.
| QUERY SEQUENCE | apparent KD of MS2 coat protein |
| --- | --- |
| CUUCUGUCAGGAUAUGCGAAUCACCGCUGGGUCAGCGGCGAGCAGAAGGGACAUGAGGAUCACCCAUGUAAAAU [Quriveer] (Eterna round: R97, puzzle: Exclusion 4) | 211 nM |
| GAAAACGUAGGAUAUUAAUACUUAUACAUGAGGAUCACCCAUGUUUGGUGGGUAAAAGAAUGAGAAGGGCGAUGAA [EX5 #9] (Eterna round: R97, puzzle: Exclusion 5) | 392 nM |

Below: the item to evaluate.
Entry CCAAGCUUGUUCAUUAUCCACAUGAGGAUCACCCAUGUCUUGGCAAUUAUGACCUGCCCGUCAGGAGCUCGUCUUAU [Sensor-V1 #37] (Eterna round: R97, puzzle: Sensor, turn-off variant 1) ; apparent KD of MS2 coat protein = 316 nM

* * *

system: MS2 coat protein; assay: apparent KD of MS2 coat protein; designed switch direction (-1 OFF switch, 1 ON switch): -1; higher = weaker reporter binding; settings: input ligand: none
READOUT KIND: apparent KD of MS2 coat protein (nM)
Number in nM, nothing else.

| QUERY SEQUENCE | READING UNIT | READOUT VALUE |
| --- | --- | --- |
| AGUAUGUUAGGAUAUUCCAUUGCUGUCAGCUCGGCGUCACAGAAGAAGGGACAUGAGGAUCACCCAUGUUAGGC [Eternabot (L1) Solution 96] (Eterna round: R97, puzzle: Exclusion 4) | nM | 71.4 |
| UAAUUGUGAGGAUAUUCGUAUAACACGGAGACGUGUUGUACGGAGAAGGCACAUGAGGAUCACCCAUGUUCCUU [Mat - Exclusion 4 - JL Mod - D18] (Eterna round: R97, puzzle: Exclusion 4) | nM | 15.2 |
| GCAAGCUUGUCAAGAUCCCACAUGAGGAUCACCCAUGUGCAUCGUCUGAGCCCAUAGCUAGUCAUCUGCGGGUGCGU [Eternabot (Original) Solution 15] (Eterna round: R97, puzzle: Sensor, turn-off variant 1) | nM | 44.7 |
| CUGCUCCGUGUAGGAUAUGCAUAUUCCCAUUAUGCAGAAGGACAUGAGGAUCACCCAUGUAUGUUAUUAUCAUGUGUUACAUGC [Design 9] (Eterna round: R96, puzzle: Exclusion NG 1) | nM | 33.2 |
| CGUCAUCAAGUCAGGAUAUCGUCAAAUCAAUCAGGCGAGAAGGGACAUGAGGAUCACCCAUGUCGACUCAUCAC [Ex4 #3] (Eterna round: R97, puzzle: Brourd's mod of Exclusion 4) | nM | 21.3 |

Entry AUGCGCAAGCUUUUUGUUCACAUGAGGAUCACCCAUGUUAUGGUCGCCUGUGAGGAGCGAUAGCGUCUCCGACCUGA [Eternabot (Original) Solution 31] (Eterna round: R97, puzzle: Sensor, turn-off variant 1) ; apparent KD of MS2 coat protein = 36.5

Entry GCAAGCUUUUGCUCGUCUUACAUGAGGAUCACCCAUGUCGGGUGCUUGCUUGCGUCCGGCGUCUGGGCCGUGGCGGU [-31.9, -55.1 kcal, A 10%] (Eterna round: R97, puzzle: Sensor, turn-off variant 1) ; apparent KD of MS2 coat protein = 21.6

Entry GAUUCGGGAGGAUAUACAUGAGGAUCACCCAUGUGUAUAUAAUAUGUUAAGUUAUCAUGUAGAAGGUUUGGGUC [-16.5, -16.2 kcal, 30% A] (Eterna round: R97, puzzle: Exclusion 3) ; apparent KD of MS2 coat protein = 49

Entry CUUGUGUUAGGAUAUGUUAAGCCACCAACCAGUGGAUCAGGACAGAAGGAACAUGAGGAUCACCCAUGUAAAAG [Inedar] (Eterna round: R97, puzzle: Exclusion 4) ; apparent KD of MS2 coat protein = 67.4

* * *

tested on: MS2 coat protein; test: apparent KD of MS2 coat protein; designed switch direction (-1 OFF switch, 1 ON switch): -1; higher = weaker reporter binding; details: input ligand: FMN 200 uM
If the reported apparent KD of MS2 coat protein equals or exceeds 90 nM, assign Fulfilled. If not, assign Not fulfilled.

Tell me whether apparent KD of MS2 coat protein is at least 90 nM here: GCACUGCGAGGAUAUACAUGAGGAUCACCCAUGUGUCGGCAGCCAUGGUAGUACAAAUGUAGAAGGCGCGUAAA [EX3 #50] (Eterna round: R97, puzzle: Exclusion 3) Not fulfilled

* * *

test system: MS2 coat protein; assay: apparent KD of MS2 coat protein; designed switch direction (-1 OFF switch, 1 ON switch): 1; higher = weaker reporter binding; conditions: input ligand: FMN 200 uM
READOUT KIND: apparent KD of MS2 coat protein (µM)
Number in µM, nothing else.

| QUERY SEQUENCE | READING UNIT | READOUT VALUE |
| --- | --- | --- |
| UGAAUGGUGAUAGGAUAUACAUGAGGAAUCCUCGUAGAAGGAUCAUGACAUGAGGAUCACCCAUGUAGCGCUCAGAAGAGCGCA [Mat - Same State NG 1 - JL mod - D53] (Eterna round: R96, puzzle: Same State NG 1) | µM | 0.129 |

Below: the item to evaluate.
Entry AUGCCAAAUGGAGGAUAUGGAGCCUUAUUGGCUCCAGAAGGUCAAACAUGAGGAUCACCCAUGUGGCAGUGGUCUAAUGACCAC [Eli NG1ss - 45] (Eterna round: R96, puzzle: Same State NG 1) ; apparent KD of MS2 coat protein = 0.11

* * *

Reported apparent KD of MS2 coat protein is given for each of the following sequences.
test system: MS2 coat protein; experiment: apparent KD of MS2 coat protein; designed switch direction (-1 OFF switch, 1 ON switch): 1; higher = weaker reporter binding; settings: input ligand: none
Number in µM, nothing else.

| QUERY SEQUENCE | READOUT VALUE |
| --- | --- |
| GUUACAUGAGGAUCACCCAUGUAUGUGUGGGAGUAAGUGUCUUAGGAUAUCUGGUAUUUAAUUUAAGAGAAGGAAGAUUGUUGU [JMF's solution 30] (Eterna round: R96, puzzle: Same State NG 3) | 0.0773 |
| AUUGCUUACGCAGGAUAUGAUGCGAAAAUUGCGUCAGAAGGGUGAAGUAACUCAUUGCAACAGGACAUGAGGAUCACCCAUGUC [SameState NG1 #89] (Eterna round: R96, puzzle: Same State NG 1) | 0.681 |
| AUUUCUAGCAUAGGAUAUCAUGCGAAAAUUGCGUGAGAAGGGUGGACGCUGUCAUUCACGGAAGACAUGAGGAUCACCCAUGUC [SameState NG1 #75] (Eterna round: R96, puzzle: Same State NG 1) | 0.0872 |
| GCUGGAAACUACAUGAGGAUCACCCAUGUUCCGGAAACGGCACAGGAUAUCUGUCCGAAAAGGUCAGAGAAGGGUGAAACCAGC [Fiskers NG3ss - 84] (Eterna round: R96, puzzle: Same State NG 3) | 1.02 |
| UUAAUGAUGAAAGGAUAUACAUGAGGAAUUCUCGUAGAAGGUUCAUGACAUGAGGAUCACCCAUGUAUCGCUCCGUAGAGCGUA [JL SSNG1 1.13] (Eterna round: R96, puzzle: Same State NG 1) | 0.0826 |

Entry GGUAGGUUACUACCAAACAUGAGGAUCACCCAUGUAAAUGGGAAGGAUAUGGUACCUAUUUGGUACCAGAAGGUCCAAUUAAUU [JL Fiskers NG3ss - 2 mod 2] (Eterna round: R96, puzzle: Same State NG 3) ; apparent KD of MS2 coat protein = 4.55

Entry CGUCGUUUGAUAGGAUAUCGCUUUACAUGAGGAUCACCCGGGUUUACCACGCUGGUUUUUCUUUCCGAGAAGGAUUCUGAUGUU [salish99_SSNG02_r04_028] (Eterna round: R96, puzzle: Same State NG 2) ; apparent KD of MS2 coat protein = 0.029

Entry GCUUGCCGCACAGGAUAUGGGUGCCUGUACAUGAGGAUCACCCAUGUUAAGGGACGGAUUACGAACCAGAAGGGUGAGGCGGGC [Lereatle] (Eterna round: R96, puzzle: Same State NG 2) ; apparent KD of MS2 coat protein = 0.473

Entry AUACAUAUCAGAGGAUAUCACGUCGUUUAGACGUGAGAAGGCUGAUCACACAUGAAUAUUAAUACAUGAGGAUCACCCAUGUAU [SSNG1/14-A3] (Eterna round: R96, puzzle: Same State NG 1) ; apparent KD of MS2 coat protein = 0.0209
